Value source: PubChem BioAssay (NCI)

# Tested on: NCI-H23 lung
# assay protocol: NCI tumour cell line growth inhibition, 48 h
TGI listing for selected compounds.

compound | TGI
NC1=NC(c2ccc(F)cc2)C2=C(N1)c1ccc3ccccc3c1OCC2 (stereo not given) | > 100 µM
O=CN1CCN(C=S)CC1 | > 100 µM
O=C1C=CC(=O)c2c1ncc1c2nc2sccn21 | 83.7 µM
COC(=O)CCN(CCC(=O)OC)C1CC1 | > 100 µM
O=C(Nc1cccc(-n2ccc3c(NC(=O)c4ccccc4)nccc32)c1)c1cc(N2CCOCC2)cc(C(F)(F)F)c1 | > 100 µM
Clc1cc(Cl)cc(Nc2nc3ccccc3nc2-c2cccs2)c1 | > 100 µM
COc1ccc2c(c1)C(=O)c1c-2n(CCCN2CCOCC2)c(=O)c2cc([N+](=O)[O-])ccc12 | < 0.01 µM
CC[C@@H]1CC[C@@H]2[C@H](CC[C@]3(C)[C@@H](OS(=O)(=O)c4ccc(C)cc4)CC[C@@H]23)[C@H]1CO | > 100 µM
CCOC(=O)C(=O)Nc1ccc(Cl)c(C(F)(F)F)c1 | > 100 µM
Nc1nc2cc(CNc3ccc(C(=O)NC(CCC(=O)O)C(=O)O)cc3)ccc2nc1-c1ccccc1 (stereo not given) | > 10 µM

---

# Test system: SK-MEL-2 melanoma
Possible outcomes: active, inactive

compound string | target system | classification
O=[N+]([O-])c1cccc(-c2cc(-c3cc(Br)ccc3O)[nH]n2)c1 | SK-MEL-2 melanoma | inactive
CO/N=C(/COc1c(-c2ccccc2)oc2ccccc2c1=O)c1ccc(F)cc1 | SK-MEL-2 melanoma | inactive
O=C(/C=C\c1ccc2ccccc2n1)c1cc(Cl)ccc1O | SK-MEL-2 melanoma | inactive
O=[N+]([O-])/C=C/c1ccc([N+](=O)[O-])cc1 | SK-MEL-2 melanoma | inactive
Cc1cc2nc3c4cccc(O)c4n(CCN(C)C)c3nc2cc1C | SK-MEL-2 melanoma | inactive
COc1ccc(C2=C(c3cc(OC)c(OC)c(OC)c3)C(=O)OC2)cc1OC | SK-MEL-2 melanoma | active

---

log10 TGI listing for selected molecules.
# Test system: MOLT-4 leukemia
# assay protocol: NCI tumour cell line growth inhibition, 48 h
property label: log10 TGI (log10 of the value in µM)

molecule | numeric readout
C=C1C(=O)O[C@H]2C[C@@H]1CCC1(C)OC1CC/C(C)=C/CC[C@H]2C (stereo partly specified) | 1.53
COc1cc(-c2n/c(=C\c3c(O)[nH]c4ccccc34)cc3c2=Nc2ccccc2-3)cc(OC)c1OC | 0.87
Cc1cc([N+](=O)[O-])ccc1N=NC(=O)NNc1ccc([N+](=O)[O-])cc1C | 1.57
CN(C)CCn1c(=O)c2ccc3c4c(nn3CCN(C)C)c3ccccc3n(c1=O)c24 | -1.24
N=C(N)c1ccc(-c2ccc(-c3ccc(F)cc3)o2)o1 | 0.67
COC(=O)c1ccccc1CC(Cc1ccccc1)C(=O)OC (stereo unspecified) | 1.96
O=C1OCC2=C1C(c1cccc(C(F)(F)F)c1)c1cc3c(cc1N2CCO)CCC3 (stereo unspecified) | 1.19

---

TGI listing for selected compounds.
# System: TK-10 renal
# assay protocol: NCI tumour cell line growth inhibition, 48 h
property label: TGI

compound | result
CCC[CH2][Sn]1([CH2]CCC)[O]C(=O)CN=Cc2ccccc2[O]1 | 729 nM
CC[C@@]1(O)C(=O)OCc2c1cc1n(c2=O)Cc2cc3c(NC(=O)CN)cccc3nc2-1 | > 81700 nM
CN(C)CCNC(=O)c1nc([N+](=O)[O-])cn1C | > 100000 nM
O=[N+]([O-])c1ccc(Cl)cc1C=NC12CC3CC(CC(C3)C1)C2 | > 100000 nM
COC1/C=C/C(C)C(C(C)C(OC)C(C)CCC(=O)C(C)C(C/C=C/N(C)C=O)OC)OC(=O)/C=C/C=C(\C)CC(OC)C(OC)C2=CC(=O)O[C@@H](C(C)C(OC)CC(OC)/C=C/C(C)C(O)C1)[C@H]2O (stereo partly drawn) | 166 nM
COc1ccccc1NC(=O)C1=C(C)NC(C)=C(C(=O)Nc2ccccc2OC)C1c1cccc2c1OCO2 | > 100000 nM
OCC(O)C(O)C(O)C(/C=N\Nc1ncnc2ccc(Br)cc12)=N/Nc1ncnc2ccc(Br)cc12 (stereo not drawn) | > 100000 nM
COc1ccc(C2=C(c3cc(OC)c(OC)c(OC)c3)C(=O)OC2)cc1OC | 1910 nM

---

TGI listing for selected compounds.
# System: NCI-H460 lung
# assay protocol: NCI tumour cell line growth inhibition, 48 h

compound | limit qualifier | TGI, µM
O=C(Nc1cccc(-n2ccc3c(NC(=O)c4ccccc4)nccc32)c1)c1cc(N2CCOCC2)cc(C(F)(F)F)c1 | > | 36.9
C[C@H](CCC1=NCCN1)[C@H]1CC[C@H]2[C@@H]3CC[C@@H]4C[C@H](O)CC[C@]4(C)[C@H]3C[C@H](O)[C@]12C | = | 31.2
COc1ccc(C(O)/C(=C/n2ccnc2)c2ccccc2)cc1OC (stereo not given) | > | 100
O=C1CC/C(=C\COc2ccc3ccc(=O)oc3c2)O1 | > | 100
NC1=C(Cl)C(=O)c2ccccc2C1=O | = | 11
Cc1nnc2sc(N/N=C/c3ccccc3)nn12 | > | 100
CNCCOC(=O)/C=C1/CCC2C(C(O)CC3C(C)(C(=O)OC)CCCC23C)C1C (stereo not given) | = | 0.019
CC(C)(C)c1cc(C2COC(=O)COCC(=O)OCCOCCOCCO2)cc(C(C)(C)C)c1O (stereo not given) | = | 98.5
Cc1ccc2nc(Cl)c(/C=N/N3C(=O)/C(=C/c4ccc(N(C)C)cc4)N=C3c3ccccc3)cc2c1 | > | 100
CCCCCCCCC/C=C1\CC(CO)(COC(=O)c2ccccc2)OC1=O (stereo not given) | = | 47.6

---

# Test system: NCI/ADR-RES ovarian
# assay protocol: NCI tumour cell line growth inhibition, 48 h; in the data active means GI50 below about 0.43 µM; inactive means the rest
Possible outcomes: Yes = active, No = inactive

compound | classification
Cc1cn2c(=O)n(c1=O)Cc1ccccc1C2 | No
CCOC(=O)C1=C(c2ccccc2)N(c2ccc(OC)cc2)[C@]2(C#N)C(O)=C(Cl)C(Cl)=C(O)[C@]12C#N | No
CN1C(=O)C(c2c[nH]c3ccccc23)=C(c2c(-c3c[nH]c4ccccc34)[nH]c3ccccc23)C1=O | No
COc1ccc(-c2csc3c2-n2cccc2C3=O)cc1O | Yes
COc1ccc2c(c1)[C@@]1(C)CCC3c4ccc(O)cc4CCC3C1C2 (stereo not given in full) | No
COc1cc2c3c(n(C)c(=O)c2cc1OC)-c1cc2c(cc1/C3=C/[C@H](N)CCCCN)OCO2 | No
COc1ccc(-n2c3c(c4c(CN(C)C)c(O)c(C)cc42)CCc2ccccc2C3=O)cc1 | No
Oc1cc(Cl)ccc1Cc1ccc(Cl)cc1O | No
OCc1ccc(Oc2c3ccccc3nc3occc23)cc1 | No
CCC(=O)c1ccc2c(c1)N(CCCN1CCN(CCO)CC1)c1ccccc1S2 | No

---

# Tested on: SNB-75 CNS
# assay protocol: NCI tumour cell line growth inhibition, 48 h

molecule | target system | TGI
CC(C)C1=CC23CCC4C(C)(C(=O)O)CCCC4(C)C2CC1C(C(=O)O)C3C(=O)O (stereo not given) | SNB-75 CNS | > 100 µM
CCC(C)C1(O)OC2CC3(C)OC(=CC3=O)/C(C)=C\C3OC(=O)C1(C)C32 (stereo not given) | SNB-75 CNS | > 100 µM
COc1nc2[nH]ccc2c(=O)n1C | SNB-75 CNS | > 100 µM
CCOC(=O)C1=C(c2ccccc2)N(c2ccc(OC)cc2)[C@]2(C#N)C(O)=C(Cl)C(Cl)=C(O)[C@]12C#N | SNB-75 CNS | 36.7 µM
CC(=O)OC12CC(C)C3(O)C4C=C(C)C(=O)[C@@]4(O)CC(CO)=C[C@H]3C1C2(C)C (stereo not given in full) | SNB-75 CNS | > 1000 µM
Cc1cc(NC(=O)NC(=O)c2ccccc2NC(=O)CN)ccc1Oc1ncc(Br)cn1 | SNB-75 CNS | 3.28 µM
COC(=O)C1=Cc2c(cc(OC)c(OC)c2OC)[C@H](c2ccc(OC)c(OC)c2OC)C1C(=O)OC (stereo not given in full) | SNB-75 CNS | > 100 µM
N#C[C@H]1Nc2ccccc2[C@@H](O)C1O (stereo not given in full) | SNB-75 CNS | > 100 µM
COc1ccc(C2c3cc4c(cc3OC(N3CCCCC3)C2C)OCO4)cc1 (stereo not given) | SNB-75 CNS | > 100 µM
O=C1/C(=C/c2ccco2)NC(=S)N1CN1CCOCC1 | SNB-75 CNS | > 100 µM
CC(=O)Nc1ccc(-c2nnc(SCC(=O)Nc3ccccc3C)o2)cc1 | SNB-75 CNS | > 100 µM
Oc1cc(Cl)ccc1Cc1ccc(Cl)cc1O | SNB-75 CNS | 34.4 µM
Cc1nnc2sc(N/N=C/c3ccccc3)nn12 | SNB-75 CNS | > 100 µM
COC(=O)c1cccc(C(=O)OC)c1 | SNB-75 CNS | > 100 µM
COc1cc2c3c(n(CCCNCCNCCCN)c(=O)c2cc1OC)-c1cc2c(cc1C3=O)OCO2 | SNB-75 CNS | 26.7 µM
O=C(c1ccccc1)N1C(=S)N(c2ccc([N+](=O)[O-])cc2)C(=Nc2ccccc2)C1=Nc1ccccc1 | SNB-75 CNS | > 100 µM
c1cncc(CNc2ncn[nH]2)c1 | SNB-75 CNS | > 100 µM
CC(=O)OCC1OC(c2nnc(C)o2)=CC(OC(C)=O)C1OC(C)=O (stereo not given) | SNB-75 CNS | > 100 µM
CCC[CH2][Sn]1([CH2]CCC)[O]C(=O)CN=Cc2ccccc2[O]1 | SNB-75 CNS | 0.849 µM
CN(C)CCOC1(CC2CCCCC2)CCC(C(C)(C)C)CC1 (stereo not given) | SNB-75 CNS | 19.1 µM
